Target: PurR (Bacillus subtilis)
Construct: untagged B. subtilis PurR
Assay: DRaCALA with […]-pppGpp
Assay type: binding
pKd: −log10 of the molar value.
reported-metric: pKd

Data request: // returns reported pKd for input Nc1nc2c(ncn2[C@@H]2O[C@H](COP(=O)(O)OP(=O)(O)OP(=O)(O)O)[C@@H](OP(=O)(O)OP(=O)(O)O)[C@H]2O)c(=O)[nH]1
Data returned: ~5.36

* * *

Molecular target: PurR (Bacillus subtilis, UniProt P37551)
Construct: untagged B. subtilis PurR
Sequence (P37551 whole entry): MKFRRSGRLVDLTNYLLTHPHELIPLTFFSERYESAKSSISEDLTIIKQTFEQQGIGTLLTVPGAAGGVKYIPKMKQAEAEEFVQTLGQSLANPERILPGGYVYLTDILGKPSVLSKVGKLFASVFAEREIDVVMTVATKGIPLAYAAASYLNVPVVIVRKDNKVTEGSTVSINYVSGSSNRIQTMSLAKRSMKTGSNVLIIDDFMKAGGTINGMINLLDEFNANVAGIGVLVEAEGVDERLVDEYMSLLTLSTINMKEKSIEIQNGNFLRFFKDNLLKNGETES
Assay: X-ray co-crystal structure ([…] Å); DRaCALA with […]-ppGpp
Assay type: binding
reported-metric: Kd

Data request: Quick one: Kd of Nc1nc2c(ncn2[C@@H]2O[C@H](COP(=O)(O)OP(=O)(O)O)[C@@H](OP(=O)(O)OP(=O)(O)O)[C@H]2O)c(=O)[nH]1 ?
Data returned: ~4.4 µM
